Tested on: HCT116
Settings: 72 h; ICRF193 200 nM
Counter-ions that a name gives are not always drawn.
recorded-endpoint: IC50 cell viability

Would you please look over these solved cases?
>>> print(df.to_string())
                                   compound    recorded_endpoint  value_observed
0  N=C(N)NC(=O)Cc1c(Cl)cccc1Cl [Guanfacine hydrochloride]  IC50 cell viability       > 45.8 µM
1  CC(C)OC(=O)CCC/C=C\C[C@@H]1[C@@H](/C=C/[C@@H](O)COc2cccc(C(F)(F)F)c2)[C@H](O)C[C@@H]1O [Travoprost]  IC50 cell viability         20.6 µM

Endpoint output: IC50 cell viability of CCCCOC(=O)c1ccc(O)cc1 [Butylparaben] . Value?
> 45.8 µM

Param item: NC(=O)N1c2ccccc2C=Cc2ccccc21 [Carbamazepine]
> 45.8 µM

----------
In this section, each of the compounds is paired with its reported IC50 cell viability.
System: HCT116
Settings: 72 h; ICRF193 0 nM
Where a name gives a salt, the structure may show the parent alone.

Endpoint output: IC50 cell viability of CC(=O)O[C@H]1C[C@@]2(C)[C@@H](C[C@@H](O)[C@H]3[C@@]4(C)CC[C@@H](O)[C@@H](C)[C@@H]4CC[C@@]32C)/C1=C(\CCC=C(C)C)C(=O)O [Fusidic Acid (sodium salt)] . Value?
> 45.8 µM

Param item: CNC(C)C(O)c1ccc(O)cc1 (stereo unspecified)
> 45.8 µM

Param item: `C[C@@H](O)[C@H]1C(=O)N2C(C(=O)O)=C(S[C@@H]3CN[C@H](C(=O)Nc4cccc(C(=O)O)c4)C3)[C@H](C)[C@H]12`
> 45.8 µM

Param item: CN(C)CCOC(=O)COc1ccc(Cl)cc1 [Meclofenoxate hydrochloride]
> 45.8 µM

Param item: `Nc1nc(=O)n([C@@H]2CS[C@H](CO)O2)cc1F`
> 45.8 µM

Param item: CC(=O)c1ccc2c(c1)N(CCCN1CCN(CCO)CC1)c1ccccc1S2 [Acetophenazine Maleate]
> 45.8 µM

----------
System: HCT116
Assay: efficacy (maximum % inhibition of viability vs DMSO); higher = more cytotoxic
Details: 72 h; ICRF193 200 nM
Structures can show the parent of a compound that is named as a salt.
recorded-endpoint: efficacy (%)
Only the number, expressed in %, is required.

molecule	target-or-test-system	value-observed
O=C1CCc2ccc(OCCCCN3CCN(c4cccc(Cl)c4Cl)CC3)cc2N1 [Aripiprazole]	HCT116	59.1

Endpoint output: efficacy of N[C@@H]1[C@H]2CN(c3nc4c(cc3F)c(=O)c(C(=O)O)cn4-c3ccc(F)cc3F)C[C@@H]12 [Trovafloxacin mesylate] . Value?
65.3

Param item: C=C1C[C@@H]2CC[C@@]34C[C@H]5O[C@H]6[C@@H](O3)[C@H]3O[C@H](CC[C@@H]3O[C@H]6[C@H]5O4)CC(=O)C[C@@H]3[C@@H](OC)[C@@H](C[C@H](O)CN)O[C@H]3C[C@H]3O[C@@H](CC[C@@H]1O2)C[C@@H](C)C3=C [Eribulin mesylate]
77.5

Param item: O=C1[C@@H]2[C@H]3CC[C@H](C3)[C@@H]2C(=O)N1C[C@@H]1CCCC[C@H]1CN1CCN(c2nsc3ccccc23)CC1 [Lurasidone (Hydrochloride)]
46.3
